Assay: Assessment of solubility: HT solubility in pION buffer, UV spectrophotometry
Conditions: pION system solution buffer, pH 7.4, pH 7.4, aqueous buffer, kinetic from dmso stock, Solubility (pH 7.4), pH 7.4 buffer, 16-19 h incubation, 1.0% DMSO
measuredParameter: solubility

Query string: Give me measured solubility, please, for this compound: Cc1cc(CN2CCS(=O)(=O)CC2)ccc1COc1ccc(C#N)cc1-c1csc(N2CCC(C(=O)O)C(C(F)(F)F)C2)n1 (stereo not shown)
Result string: > 64 µg/mL

Query string: Give me measured solubility, please, for this compound: Cc1ccc(OCc2ccc(CN3CCS(=O)(=O)CC3)cc2C)c(-c2csc(N3CCCC(C(=O)O)CC3)n2)c1 (stereo not shown)
Result string: > 58 µg/mL

Query string: Give me measured solubility, please, for this compound: `Cc1ccc(OCc2ccc(CN3CCN(C(=O)C4CC4)CC3)cc2C#N)c(-c2csc(N3CCC(C(=O)O)CC3)n2)c1`
Result string: > 59 µg/mL

Read the next record carefully.
Query string: Give me measured solubility, please, for this compound: Cc1cc(C(=O)N2CCCCC2)ccc1COc1ccccc1-c1csc(N2CC3CCC(C2)C3C(=O)O)n1 (stereo not shown)
Result string: > 54 µg/mL

----------
Test: Assessment of solubility: HT solubility in pION buffer, UV spectrophotometry
Conditions: pH 6.8, aqueous buffer, kinetic from dmso stock, Solubility (pH 6.8), pH 6.8
Kindly supply the reported solubility values for the records listed here.
Entry format: amount then unit.

These solved cases illustrate the format of a correct answer.
Query string: Give me measured solubility, please, for this molecule: Cc1ccc(OCc2ccc(C(=O)N3CCC3)cc2C)c(-c2csc(N3C[C@H]4CC[C@@H](C3)[C@H]4C(=O)O)n2)c1 [Compound 361]
Result string: 34 µg/mL

Query string: Give me measured solubility, please, for this molecule: CCc1cc(C(=O)N2CCN(C)C(=O)C2)ccc1COc1ccc(C)cc1-c1csc(N2C[C@H]3CC[C@@H](C2)[C@H]3C(=O)O)n1 [Compound 295]
Result string: 60 µg/mL

Read the next record carefully.
Query string: Give me measured solubility, please, for this molecule: COCCCN(C)C(=O)c1ccc(COc2ccc(C)cc2-c2csc(N3C[C@H]4CC[C@@H](C3)[C@H]4C(=O)O)n2)c(C)c1 [Compound 338]
Result string: 58 µg/mL

----------
Experiment: Assessment of solubility: HT solubility in pION buffer, UV spectrophotometry
Settings: pION system solution buffer, pH 4.5, pH 4.5, aqueous buffer, kinetic from dmso stock, Solubility (pH 4.5), pH 4.5 buffer, 16-19 h incubation, 1.0% DMSO
Kindly supply the reported solubility values for the records listed here.
One number for each entry, in µg/mL.

Query string: Give me measured solubility, please, for this compound: `Cc1ccc(OCc2ccc(CN3CCOC(C)(C)C3)cc2C#N)c(-c2csc(N3C[C@H]4CC[C@@H](C3)[C@H]4C(=O)O)n2)c1`
Result string: 0.14

Could I get solubility for every one of these entries?
1. Cc1ccc(OCc2ccc(CN3C[C@@H](C)O[C@@H](C)C3)cc2C#N)c(-c2csc(N3C[C@H]4CC[C@@H](C3)[C@H]4C(=O)O)n2)c1
2. Cc1cc(C(=O)N2CCCCC2)ccc1COc1ccccc1-c1csc(N2CCC(C(=O)O)C(C)C2)n1 (stereo not drawn)
3. Cc1cc(CN2CCS(=O)(=O)CC2)ccc1COc1ccc(F)cc1-c1csc(N2C3CCC2CC(C(=O)O)C3)n1 (stereo not drawn)
4. Cc1ccc(OCc2ccc(C(=O)N(C)Cc3nccn3C)cc2C)c(-c2csc(N3C[C@H]4CC[C@@H](C3)[C@H]4C(=O)O)n2)c1

Result string:
1: 2.7; 2: 0.45; 3: 0.6; 4: 32

----------
Experiment: Assessment of solubility: HT solubility in pION buffer, UV spectrophotometry
Conditions: pION system solution buffer, pH 4.5, pH 4.5, aqueous buffer, kinetic from dmso stock, Solubility (pH 4.5), pH 4.5 buffer, 16-19 h incubation, 1.0% DMSO
Kindly supply the reported solubility values for the records listed here.

These solved cases illustrate the format of a correct answer.
Query string: Give me measured solubility, please, for this compound: Cc1ccc(OCc2c(C)cc(C(=O)N3CCCCC3)cc2C)c(-c2csc(N3C[C@H]4CC[C@@H](C3)[C@H]4C(=O)O)n2)c1 [Compound 282]
Result string: < 0.1 µg/mL

Query string: Give me measured solubility, please, for this compound: Cc1ccc(OCc2ccc(CN3CCOCC3)cc2C)c(-c2csc(N3CCC(F)(C(=O)O)CC3)n2)c1 [Compound 60]
Result string: > 58 µg/mL

Read the next record carefully.
Query string: Give me measured solubility, please, for this compound: Cc1ccc(OCc2ccc(CN(C)CC3CCOCC3)cc2C)c(-c2csc(N3CCC(C(=O)O)CC3)n2)c1 [Compound 96]
Result string: > 67 µg/mL

----------
Molecular target: Recombinant human soluble guanylate cyclase (sGC), alpha 1 / beta 1 subunits, heme-free (Homo sapiens, UniProt Q02108+Q02153)
Construct: histidine tag (C); made in house; host or cells: Sf9 insect cells (baculovirus coinfection)
Sequence (Q02108 whole entry partner): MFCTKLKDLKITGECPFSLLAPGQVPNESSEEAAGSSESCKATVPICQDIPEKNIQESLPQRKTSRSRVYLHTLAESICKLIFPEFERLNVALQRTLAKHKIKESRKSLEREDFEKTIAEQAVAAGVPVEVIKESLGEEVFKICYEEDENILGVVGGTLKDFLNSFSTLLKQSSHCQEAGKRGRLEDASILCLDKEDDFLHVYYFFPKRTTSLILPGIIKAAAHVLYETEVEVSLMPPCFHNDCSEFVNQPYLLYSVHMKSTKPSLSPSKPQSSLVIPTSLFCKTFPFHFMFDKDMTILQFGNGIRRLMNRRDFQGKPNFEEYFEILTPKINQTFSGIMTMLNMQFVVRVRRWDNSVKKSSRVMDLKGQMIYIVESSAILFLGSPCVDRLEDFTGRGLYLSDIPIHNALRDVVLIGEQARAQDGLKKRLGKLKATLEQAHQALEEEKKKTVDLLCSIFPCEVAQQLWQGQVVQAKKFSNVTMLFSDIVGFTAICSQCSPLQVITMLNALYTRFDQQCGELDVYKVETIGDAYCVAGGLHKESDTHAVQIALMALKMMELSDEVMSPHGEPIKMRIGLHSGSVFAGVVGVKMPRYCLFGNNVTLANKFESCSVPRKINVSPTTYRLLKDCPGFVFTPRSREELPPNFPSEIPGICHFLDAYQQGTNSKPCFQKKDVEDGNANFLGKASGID
Sequence (Q02153 whole entry): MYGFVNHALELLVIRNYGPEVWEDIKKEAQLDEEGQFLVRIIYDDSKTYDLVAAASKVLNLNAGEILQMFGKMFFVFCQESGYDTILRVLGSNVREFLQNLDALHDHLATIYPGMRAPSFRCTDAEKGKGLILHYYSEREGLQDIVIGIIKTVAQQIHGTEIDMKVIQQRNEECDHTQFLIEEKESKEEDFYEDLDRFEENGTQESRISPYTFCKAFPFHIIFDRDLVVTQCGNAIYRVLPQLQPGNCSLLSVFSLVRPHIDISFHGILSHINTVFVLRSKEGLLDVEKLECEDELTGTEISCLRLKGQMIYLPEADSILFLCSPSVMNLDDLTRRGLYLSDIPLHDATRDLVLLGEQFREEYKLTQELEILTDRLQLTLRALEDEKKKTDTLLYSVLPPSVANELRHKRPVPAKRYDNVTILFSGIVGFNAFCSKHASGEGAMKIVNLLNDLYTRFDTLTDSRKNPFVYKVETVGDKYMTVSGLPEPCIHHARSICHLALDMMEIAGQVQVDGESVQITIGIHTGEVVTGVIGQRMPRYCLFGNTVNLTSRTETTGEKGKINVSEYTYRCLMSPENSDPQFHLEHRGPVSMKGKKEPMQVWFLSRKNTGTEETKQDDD
Experiment: Molecular assay: cGMP formation by heme-free recombinant sGC (CisBio cGMP detection kit)
Assay type: biochemical
Details: 300 pM heme-free sGC, 37° C., 60 min, cGMP readout; read-out: EC50 nM, Activity of Compounds in Molecular Assay
Description: Recombinant human soluble guanylate cyclase (sGC) is purified from Sf9 insect cells coinfected with baculoviruses expressing the alpha 1 or beta 1 subunit of sGC, both with a C-terminal histidine tag. […] sGC catalyzes the conversion of guanosine-5′-triphosphate (GTP) to cyclic guanosine monophosphate (cGMP). The activity of sGC is measured in vitro using the commercially available CisBio cGMP detection kit (catalog # 62GM2PEB) in a 384 well format. […]
Kindly supply the reported EC50 values for the records listed here.
Numbers only, in nM.

These solved cases illustrate the format of a correct answer.
Query string: Give me measured EC50, please, for this compound: Cc1cc(CN2CCOCC2)ccc1COc1ccc(F)cc1-c1csc(N2CC3CCC(C2)C3C(=O)O)n1 (centres unmarked) [Compound 77]
Result string: 4400

Query string: Give me measured EC50, please, for this compound: Cc1cc(C(=O)N2CCCCC2)ccc1COc1ccccc1-c1csc(N2CCC(C(=O)O)C(C(F)(F)F)C2)n1 (centres unmarked) [Compound 127]
Result string: 400

Query string: Give me measured EC50, please, for this compound: Cc1ccc(OCc2ccc(CN3CCOCC3)cc2OC(F)(F)F)c(-c2csc(N3CCC(C(=O)O)CC3)n2)c1 [Compound 277]
Result string: 74

Query string: Give me measured EC50, please, for this compound: Cc1ccc(OCc2ccc(CN3CCS(=O)(=O)CC3)cc2C)c(-c2csc(N3CCC(C(=O)O)C(C(F)(F)F)C3)n2)c1 (centres unmarked) [Compound 154]
Result string: 530

Read the next record carefully.
Query string: Give me measured EC50, please, for this compound: Cc1cc(C(=O)N2CCCCC2)ccc1COc1c(C)cccc1-c1csc(N2C3CCC2CC(C(=O)O)C3)n1 (centres unmarked) [Compound 209]
Result string: 270

----------
Kindly supply the reported solubility values for the records listed here.
Assay: Assessment of solubility: HT solubility in pION buffer, UV spectrophotometry
Conditions: pION system solution buffer, pH 4.5, pH 4.5, aqueous buffer, kinetic from dmso stock, Solubility (pH 4.5), pH 4.5 buffer, 16-19 h incubation, 1.0% DMSO

Query string: Give me measured solubility, please, for this molecule: Cc1cc(CN2CCOCC2)ccc1COc1ccc(F)cc1-c1csc(N2C3CCC2CC(C(=O)O)C3)n1 (stereo not shown) [Compound 80]
Result string: > 62 µg/mL

Query string: Give me measured solubility, please, for this molecule: Cc1ccc(OCc2ccc(C(=O)N3CCCCC3)cc2C)c(-c2csc(N3C[C@H]4CC[C@@H](C3)[C@@]4(O)C(=O)O)n2)c1 [Compound 216]
Result string: < 0.1 µg/mL

Query string: Give me measured solubility, please, for this molecule: Cc1cc(CN2CCCCC2)ccc1COc1c(C)cccc1-c1csc(N2CCC(C(=O)O)CC2)n1 [Compound 16]
Result string: > 51 µg/mL

Query string: Give me measured solubility, please, for this molecule: Cc1ccc(OCc2ccc(C(=O)N3CCC(C#N)CC3)cc2C)c(-c2csc(N3C[C@H]4CC[C@@H](C3)[C@H]4C(=O)O)n2)c1 [Compound 323]
Result string: < 0.1 µg/mL

Query string: Give me measured solubility, please, for this molecule: Cc1ccc(OCc2ccc(C(=O)N(C)Cc3cnn(C)c3)cc2C)c(-c2csc(N3C[C@H]4CC[C@@H](C3)[C@H]4C(=O)O)n2)c1 [Compound 315]
Result string: < 0.1 µg/mL

Could I get solubility for every one of these entries?
1. Cc1ccc(OCc2ccc(CN3CCOCC3)cc2C)c(-c2csc(N3CCCC(C(=O)O)CC3)n2)c1 (stereo not shown) [Compound 52]
2. COCCN(C)Cc1ccc(COc2ccc(C)cc2-c2csc(N3CC[C@@H](C(=O)O)[C@@H](C)C3)n2)c(C#N)c1 [Compound 75]
3. CCc1cc(C(=O)N2CCCCC2)ccc1COc1ccc(C)cc1-c1csc(N2C[C@H]3CC[C@@H](C2)[C@H]3C(=O)O)n1 [Compound 287]

Result string:
["> 58 µg/mL", "> 66 µg/mL", "< 0.1 µg/mL"]

Could I get solubility for every one of these entries?
1. Cc1ccc(OCc2ccc(CN3CCOCC3)cc2C)c(-c2csc(N3CCC(C(=O)O)C3)n2)c1 (stereo not shown) [Compound 6]
2. Cc1ccc(OCc2ccc(C(=O)N3CCC(F)(F)CC3)cc2C)c(-c2csc(N3C[C@H]4CC[C@@H](C3)[C@H]4C(=O)O)n2)c1 [Compound 317]
3. Cc1ccc(OCc2ccc(C(=O)N(C)Cc3ccn(C)n3)cc2C)c(-c2csc(N3C[C@H]4CC[C@@H](C3)[C@H]4C(=O)O)n2)c1 [Compound 343]

Result string:
1. > 62 µg/mL
2. < 0.1 µg/mL
3. < 0.1 µg/mL

Could I get solubility for every one of these entries?
1. Cc1ccc(OCc2ccc(CN3CCOCC3)cc2C)c(-c2csc(N3CCC(C)(C(=O)O)CC3)n2)c1 [Compound 51]
2. Cc1ccc(OCc2ccc(CN3CCC(O)CC3)cc2C)c(-c2csc(N3CCC(C(=O)O)CC3)n2)c1 [Compound 175]

Result string:
1: > 58 µg/mL; 2: > 55 µg/mL
